TARGET: Calcium-activated potassium channel subunit alpha-1 (Homo sapiens) (UniProt Q12791)
Sequence (Q12791 whole entry): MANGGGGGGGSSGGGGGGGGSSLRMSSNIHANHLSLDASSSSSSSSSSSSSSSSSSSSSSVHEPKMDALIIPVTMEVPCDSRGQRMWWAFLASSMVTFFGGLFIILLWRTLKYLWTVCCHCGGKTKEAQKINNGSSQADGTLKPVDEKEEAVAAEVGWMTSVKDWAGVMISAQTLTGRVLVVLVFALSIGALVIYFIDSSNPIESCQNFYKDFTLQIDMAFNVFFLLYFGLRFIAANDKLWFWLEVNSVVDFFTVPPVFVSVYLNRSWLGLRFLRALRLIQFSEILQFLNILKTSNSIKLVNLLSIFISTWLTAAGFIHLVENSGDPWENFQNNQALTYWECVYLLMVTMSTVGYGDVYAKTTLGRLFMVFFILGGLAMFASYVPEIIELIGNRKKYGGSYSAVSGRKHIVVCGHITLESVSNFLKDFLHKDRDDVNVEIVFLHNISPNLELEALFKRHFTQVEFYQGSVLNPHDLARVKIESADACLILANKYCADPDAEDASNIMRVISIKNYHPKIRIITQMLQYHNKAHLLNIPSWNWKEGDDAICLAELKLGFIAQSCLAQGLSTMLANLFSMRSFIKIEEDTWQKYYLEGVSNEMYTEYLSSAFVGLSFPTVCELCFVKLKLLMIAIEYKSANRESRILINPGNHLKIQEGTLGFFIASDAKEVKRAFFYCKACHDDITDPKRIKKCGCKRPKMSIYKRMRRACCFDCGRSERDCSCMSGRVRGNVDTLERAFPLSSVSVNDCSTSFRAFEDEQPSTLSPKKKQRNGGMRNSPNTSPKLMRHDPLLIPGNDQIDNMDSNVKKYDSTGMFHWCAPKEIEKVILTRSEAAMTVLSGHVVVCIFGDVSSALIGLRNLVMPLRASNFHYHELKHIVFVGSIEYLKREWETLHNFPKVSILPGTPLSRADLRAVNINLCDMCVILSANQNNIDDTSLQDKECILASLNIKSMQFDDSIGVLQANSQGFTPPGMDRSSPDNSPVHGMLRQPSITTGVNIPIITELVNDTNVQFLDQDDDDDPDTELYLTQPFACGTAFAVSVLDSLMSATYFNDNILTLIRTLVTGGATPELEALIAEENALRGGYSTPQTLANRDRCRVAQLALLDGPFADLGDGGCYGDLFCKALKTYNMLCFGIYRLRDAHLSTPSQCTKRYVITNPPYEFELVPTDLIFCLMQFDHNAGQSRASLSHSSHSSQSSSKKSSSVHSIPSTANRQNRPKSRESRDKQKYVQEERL
ASSAY INFO: Activation of human BK alpha channel expressed in CHO-K1 cells assessed as ionic current at 30 uM by patch clamp electrophysiological assay relative to control
Type: cell-based
RESULT TYPE: Activity (%)

Solved cases (5 shown):
COMPOUND	Activity [%]
CC(C)=CCO/N=C1\C[C@H]2[C@](C)(C(=O)O)CCC[C@]2(C)c2cc(Cl)c(C(C)C)c(Cl)c21	126
CC(C)c1ccc2c(c1)/C(=N/OCc1ccccc1)C[C@H]1[C@](C)(C(=O)O)CCC[C@]21C	123
CO/N=C1\C[C@H]2[C@](C)(C(=O)O)CCC[C@]2(C)c2c(Cl)c(Cl)c(C(C)C)c(Cl)c21	235
C=CCO/N=C1\C[C@H]2[C@](C)(C(=O)O)CCC[C@]2(C)c2ccc(C(C)C)cc21	182
CCCCCCCO/N=C1\C[C@H]2[C@](C)(C(=O)O)CCC[C@]2(C)c2cc(Cl)c(C(C)C)c(Cl)c21	111

a: CC(C)c1ccc2c(c1)/C(=N/OCCCc1ccccc1)C[C@H]1[C@](C)(C(=O)O)CCC[C@]21C
b: C=CCO/N=C1\C[C@H]2[C@](C)(C(=O)O)CCC[C@]2(C)c2cc(Br)c(C(C)C)cc21
c: CC(C)c1ccc2c(c1)C(=O)C[C@H]1[C@](C)(C(=O)O)CCC[C@]21C
stdin: Order the records so the highest Activity appears first and the lowest last. Lab note: record answer as labels in requested order.
stdout: b, a, c

P: C[C@]1(C(=O)O)CCC[C@]2(C)c3cc(OCCCc4ccccc4)ccc3/C(=N/OCCCc3ccccc3)C(O)[C@@H]12 (some centres undefined)
Q: C#CCO/N=C1\C[C@H]2[C@](C)(C(=O)O)CCC[C@]2(C)c2cc(Cl)c(C(C)C)c(Cl)c21
stdin: Please let me know which one, P or Q , has a lower measured Activity value. Write down the label of the entry you select.
stdout: P
(P: 107%, Q: 261%)

1: CC(C)c1c(Cl)cc2c(c1Cl)/C(=N/OCc1ccccc1)C[C@H]1[C@](C)(C(=O)O)CCC[C@]21C
2: CO/N=C1\C[C@H]2[C@](C)(C(=O)O)CCC[C@]2(C)c2cc(Br)c(C(C)C)cc21
stdin: So which one has the bigger Activity here, 1 or 2 ? Write down the label of the entry you select.
stdout: 2

A: C[C@]1(C(=O)O)CCC[C@]2(C)c3cc(OCCCc4ccccc4)ccc3/C(=N/OCCCc3ccccc3)C[C@@H]12
B: C=CCO/N=C1\C[C@H]2[C@](C)(C(=O)O)CCC[C@]2(C)c2cc(Cl)c(C(C)C)c(Cl)c21
stdin: Please let me know which one, A or B , has a lower measured Activity value. Write down the label of the entry you select.
stdout: A
(A: 134%, B: 297%)
